# tested.target: P2Y1 receptor (Homo sapiens)
# Construct: expressed in transfected cells
# procedure.summary: P2Y1 IP1 accumulation HTRF assay, antagonism of agonist MRS2365 in stably transfected cells
# Assay type: cell-based
# experimental.parameters: racemic; 5nM MRS2365; values rounded to nearest whole number; N >= 4
Hi there, I'd appreciate the recorded pIC50 for every entry that follows.
For clarity, pIC50 is expressed as the negative log10 of concentration in mol/L.

Name the recorded pIC50 of the item CN1C(=O)CC1(c1ccccc1Oc1ncccc1NC(=O)Nc1ccc(OC(F)(F)F)cc1)C(F)F (racemic) [S83] in your answer.
5.33

Return reported pIC50. Input compound: Cc1cccc(Oc2ncccc2NC(=O)Nc2ccc(OC(F)(F)F)cc2)c1C1COC1 (racemic) [S88]
5.93

Given the compound Cc1ccc(Nc2nnc(C(F)F)s2)c(Oc2ccc(F)cc2C2(C(F)(F)F)CCO2)n1 (racemic) [S76] , write its reported pIC50.
5.52

Answer with the recorded pIC50 for the compound listed here: Cn1c(C(F)(F)F)nc2ccc(NC(=O)Nc3cccnc3Oc3ccccc3C3(C(F)(F)F)CCO3)cc21 (racemic) [S78]
5.50

Return reported pIC50. Input compound: COc1cc(NC(=O)Nc2ccc(C)nc2Oc2ccc(F)cc2C2(C(F)(F)F)CCO2)ccn1 (racemic) [S77]
5.50

State its pIC50 for this compound: Cc1ccc(NC(=O)Nc2ccc(C#N)cc2F)c(Oc2ccc(F)cc2C2(C(F)(F)F)CCO2)n1 (racemic) [S56]
6.23

For the compound COc1ccc(NC(=O)Nc2ccc(C)nc2Oc2ccc(F)cc2C2(C(F)(F)F)CCO2)cn1 (racemic) [S75] , give its reported pIC50.
5.58

Respond only with pIC50 recorded for COc1ncc(NC(=O)Nc2cccnc2Oc2ccc(F)cc2C2(C(F)(F)F)CCO2)cc1F (racemic) [S68]
5.87

For Cc1ccc(NC(=O)Nc2ccc(Cl)cc2)c(Oc2ccc(F)cc2C2(C(F)(F)F)CCO2)n1 (racemic) [S32] , write its pIC50.
6.77

Determine its reported pIC50: O=C(Nc1cc(OC(F)(F)F)ccc1F)Nc1cccnc1Oc1ccc(F)cc1C1(C(F)(F)F)CCO1 (racemic) [S40]
6.56

Note pIC50 for the compound shown: O=C(Nc1cc2c(cc1F)OCO2)Nc1cccnc1Oc1ccccc1C1(C(F)(F)F)CCO1 (racemic) [S61]
6.11

Provide one value: measured pIC50 of Cc1cc2nc(Nc3cccnc3Oc3ccc(F)cc3C3(C(F)(F)F)CCO3)[nH]c2cc1C (racemic) [S120]
5.91

Write down pIC50 measured for item O=C(Nc1ccc(Cl)cc1)Nc1ccc(Cl)nc1Oc1ccccc1C1(C(F)(F)F)CCO1 (racemic) [S24]
6.84

State its pIC50: Cc1ccc(NC(=O)Nc2ccc(C#N)cc2)c(Oc2ccc(F)cc2C2(C(F)(F)F)CCO2)n1 (racemic) [S66]
5.99

Consider the compound O=C(Nc1ccc(F)cc1)Nc1cccnc1Oc1ccccc1C1(C(F)(F)F)CCO1 (racemic) [S53] . State its measured pIC50.
6.28

Quick one: give measured pIC50 for O=C(Nc1ccc(OC(F)(F)F)cc1)Nc1cccnc1Oc1ccc(F)cc1C1(C(F)(F)F)CCO1 (racemic) [S33]
6.75

* * *

# tested.target: P2Y1 receptor (Homo sapiens)
# Construct: expressed in transfected cells
# procedure.summary: P2Y1 IP1 accumulation HTRF assay, antagonism of agonist MRS2365 in stably transfected cells
# Type: cell-based
# experimental.parameters: racemic; 5nM MRS2365; values rounded to nearest whole number; N >= 4
pIC50: −log10 of the molar value.
Outcome label depends on pIC50 relative to 7: at/above gives Criterion met, below gives Criterion not met.

Please tell me: is the compound Cc1ncc(NC(=O)Nc2ccc(OC(F)(F)F)cc2)c(Oc2ccccc2C2(C(F)(F)F)CCO2)n1 (racemic) at or over 7 in terms of pIC50?
Criterion not met

Say whether N#Cc1ccc(NC(=O)Nc2cccnc2Oc2ccccc2C2(C(F)(F)F)CCO2)cc1 (racemic) shows pIC50 of 7 or more.
Criterion not met

// inclusive: pIC50 at least 7? input: O=C(Nc1ccc(Cl)cc1F)Nc1cccnc1Oc1ccc(F)cc1C1(C(F)(F)F)CCO1 (racemic)
Criterion not met

Form field: pIC50 at least 7? Entry: Cc1ccc(NC(=O)Nc2ccc(OC(F)(F)F)cc2F)c(Oc2ccccc2C2(C(F)(F)F)CCN2C)n1 (racemic)
Criterion met

Assess whether reported pIC50 for COc1ccc(NC(=O)Nc2cccnc2Oc2ccccc2C2(C(F)(F)F)CCO2)c(F)c1 (racemic) sits at 7 or higher.
Criterion not met

// inclusive: pIC50 at least 7? input: Cn1c(C(F)F)nc2ccc(NC(=O)Nc3cccnc3Oc3ccccc3C3(C(F)(F)F)CCO3)cc21 (racemic)
Criterion not met

* * *

# tested.target: P2Y1 receptor (Homo sapiens, UniProt P47900)
# Construct: expressed in transfected cells
# Sequence (P47900 whole entry): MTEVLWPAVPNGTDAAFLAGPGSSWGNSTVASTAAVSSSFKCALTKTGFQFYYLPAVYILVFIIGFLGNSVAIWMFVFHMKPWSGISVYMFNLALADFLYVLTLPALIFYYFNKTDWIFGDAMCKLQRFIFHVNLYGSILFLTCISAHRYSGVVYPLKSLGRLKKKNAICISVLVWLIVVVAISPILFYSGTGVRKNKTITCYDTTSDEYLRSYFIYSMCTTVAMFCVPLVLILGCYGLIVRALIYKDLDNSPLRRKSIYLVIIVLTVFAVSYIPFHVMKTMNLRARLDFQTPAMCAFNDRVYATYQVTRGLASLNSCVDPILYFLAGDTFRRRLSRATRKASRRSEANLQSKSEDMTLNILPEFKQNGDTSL
# procedure.summary: P2Y1 IP1 accumulation HTRF assay, antagonism of agonist MRS2365 in stably transfected cells
# Type: cell-based
# experimental.parameters: racemic; 5nM MRS2365; values rounded to nearest whole number; N >= 4
I'd be grateful if you could share measured pIC50 for these entries.
Note: pIC50 values are expressed as the negative base-10 logarithm of concentration in M.

State measured pIC50 of the compound COc1ccc(NC(=O)Nc2cccnc2Oc2ccccc2C2(C(F)(F)F)CCO2)cc1F (racemic) [S55] with P2Y1 receptor (Homo sapiens, UniProt P47900).
6.25

Report pIC50 on P2Y1 receptor (Homo sapiens, UniProt P47900) for this entry: CN1CCC1(c1ccccc1Oc1ncccc1NC(=O)Nc1ccc(OC(F)(F)F)cc1)C(F)(F)F (racemic) [S89]
7.15

Given CC1(c2ccccc2Oc2ncccc2NC(=O)Nc2ccc(OC(F)(F)F)cc2)CCC1 (racemic) [S95] , report its pIC50 on P2Y1 receptor (Homo sapiens, UniProt P47900).
7.44

Would you please give the reported pIC50 of Cc1ccc(NC(=O)Nc2ccc(OC(F)(F)F)cc2)c(Oc2ccccc2C2(C(F)(F)F)CCO2)n1 (racemic) [S7] with P2Y1 receptor (Homo sapiens, UniProt P47900)?
7.26

* * *

# tested.target: P2Y1 receptor (Homo sapiens)
# Construct: expressed in transfected cells
# procedure.summary: P2Y1 IP1 accumulation HTRF assay, antagonism of agonist MRS2365 in stably transfected cells
# Format: cell-based
# experimental.parameters: racemic; 5nM MRS2365; values rounded to nearest whole number; N >= 4
Record form. Attribute: IC50. Fill in for each entry.
Give just the number in µM; leave the unit off.

For the molecule Cc1ccc(NC(=O)Nc2ccc(Cl)cc2F)c(Oc2ccc(F)cc2C2(C(F)(F)F)CCO2)n1 (racemic) [S16] , give its reported IC50.
0.108

Look up and state reported IC50 for O=C(Nc1cccnc1Oc1ccccc1C1(C(F)(F)F)CCO1)NC1CC2(CC2)C1 (racemic) [S74]
2.14

Supply IC50 value. Item: O=C(Nc1ccc2c(c1)OCO2)Nc1cccnc1Oc1ccccc1C1(C(F)(F)F)CCO1 (racemic) [S70]
1.45

Give me measured IC50, please, for this molecule: Cc1ccc(NC(=O)Nc2ccccc2)c(Oc2ccc(F)cc2C2(C(F)(F)F)CCO2)n1 (racemic) [S42]
0.324

Provide measured IC50 value, entry: O=C(Nc1ccc(Cl)cc1F)Nc1ccc(Cl)nc1Oc1ccccc1C1(C(F)(F)F)CCO1 (racemic) [S22]
0.141

Give reported IC50 value for O=C(Nc1ccc(OC(F)(F)F)cc1F)Nc1ccc(Cl)nc1Oc1ccccc1C1(C(F)(F)F)CCO1 (racemic) [S14]
0.094

Provide one value: measured IC50 of O=C(Nc1ccc(OC(F)(F)F)c(F)c1)Nc1cccnc1Oc1ccccc1C1(C(F)(F)F)CCO1 (racemic) [S23]
0.145

The reported measurements were obtained from patent EP4095134A1.
